Assay: Mouse whole blood protein binding assay
Format: in vitro ADME
Conditions: 1 μM, mean ± SD (n = 3)
Mouse WBPB reference
attribute.measured: Mouse WBPB (%)

entry.smiles	experimental.value
COc1cc(OC)c2nccc(N3CCc4c(cc(Cn5ccnc5)cc4-c4cn(C)nc4C(F)(F)F)C3=O)c2c1	96.5
CNC(=O)c1cc(OC)cc2c(N3CCc4c(cc(Cn5ccnc5)cc4-c4cn(C)nc4C(F)(F)F)C3=O)ccnc12	98.7
COc1ccc2nccc(N3CCc4c(cc(Cn5ccnc5)cc4-c4cn(C)nc4C(F)(F)F)C3=O)c2c1	98.7
COc1cc(C(=O)N(C)C)c2nccc(N3CCc4c(cc(Cn5ccnc5)cc4-c4cn(C)nc4C(F)(F)F)C3=O)c2c1	85.7
CCc1cc(C(=O)NC)c2nccc(N3CCc4c(cc(Cn5ccnc5)cc4-c4cn(C)nc4C(F)(F)F)C3=O)c2c1	99.6
Cc1ccc2cncc(N3CCc4c(cc(Cn5ccnc5)cc4-c4cn(C)nc4C(F)(F)F)C3=O)c2c1	98.6
CCc1cc(OC)c2nccc(N3CCc4c(cc(Cn5ccnc5)cc4-c4cn(C)nc4C(F)(F)F)C3=O)c2c1	98.7

The reported measurements were obtained from paper PMC9910433.
